Data credit: ChEMBL document CHEMBL4765293

Tested on: Quadruplex DNA
Experiment: Binding affinity to c-Myc G4-quadruplex DNA (unknown origin) by UV- vis spectrophotometric analysis
Assay type: nucleic-acid assay
Recorded measurements of Ka, one per entry

Exam item: Sample Cn1cc(NC(=O)c2cccn2C)cc1C(=O)NCCC[N+](C)(C)CC(=O)Nc1ccc2c(c1)C(=O)c1ccc(NC(=O)C[N+](C)(C)CCCNC(=O)c3cc(NC(=O)c4cccn4C)cn3C)cc1C2=O — what was its Ka?
Marked response: 2.8 10^6/M

Exam item: Param item: Cn1cccc1C(=O)NCCC[N+](C)(C)CC(=O)Nc1ccc2c(c1)C(=O)c1ccc(NC(=O)C[N+](C)(C)CCCNC(=O)c3cccn3C)cc1C2=O.[Cl-].[Cl-]
Marked response: 1.4 10^6/M

Exam item: And what about the molecule Cn1cc(NC(=O)c2cc(NC(=O)c3cccn3C)cn2C)cc1C(=O)NCCC[N+](C)(C)CC(=O)Nc1ccc2c(c1)C(=O)c1ccc(NC(=O)C[N+](C)(C)CCCNC(=O)c3cc(NC(=O)c4cc(NC(=O)c5cccn5C)cn4C)cn3C)cc1C2=O ?
Marked response: 3.8 10^6/M

Exam item: Also C[N+](C)(C)CC(=O)Nc1ccc2c(c1)C(=O)c1ccc(NC(=O)C[N+](C)(C)C)cc1C2=O ?
Marked response: 0.16 10^6/M

* * *

Tested on: Quadruplex DNA
Experiment: Binding affinity to c-KIT2 G4-quadruplex DNA (unknown origin) by UV- vis spectrophotometric analysis
Assay type: nucleic-acid assay
measure_name: Ka

| mol_smiles | recorded_result |
| --- | --- |
| C[N+](C)(C)CC(=O)Nc1ccc2c(c1)C(=O)c1ccc(NC(=O)C[N+](C)(C)C)cc1C2=O | 0.09 10^6/M |

Exam item: Return reported Ka; argument: Cn1cc(NC(=O)c2cc(NC(=O)c3cccn3C)cn2C)cc1C(=O)NCCC[N+](C)(C)CC(=O)Nc1ccc2c(c1)C(=O)c1ccc(NC(=O)C[N+](C)(C)CCCNC(=O)c3cc(NC(=O)c4cc(NC(=O)c5cccn5C)cn4C)cn3C)cc1C2=O
Marked response: 4.1 10^6/M

Exam item: Item: Cn1cc(NC(=O)c2cccn2C)cc1C(=O)NCCC[N+](C)(C)CC(=O)Nc1ccc2c(c1)C(=O)c1ccc(NC(=O)C[N+](C)(C)CCCNC(=O)c3cc(NC(=O)c4cccn4C)cn3C)cc1C2=O
Marked response: 1.8 10^6/M

Exam item: What would you report for Cn1cccc1C(=O)NCCC[N+](C)(C)CC(=O)Nc1ccc2c(c1)C(=O)c1ccc(NC(=O)C[N+](C)(C)CCCNC(=O)c3cccn3C)cc1C2=O.[Cl-].[Cl-] ?
Marked response: 0.8 10^6/M
